ASSAYED TARGET: SMARCA2 (Homo sapiens, UniProt P51531)
Sequence (P51531 whole entry): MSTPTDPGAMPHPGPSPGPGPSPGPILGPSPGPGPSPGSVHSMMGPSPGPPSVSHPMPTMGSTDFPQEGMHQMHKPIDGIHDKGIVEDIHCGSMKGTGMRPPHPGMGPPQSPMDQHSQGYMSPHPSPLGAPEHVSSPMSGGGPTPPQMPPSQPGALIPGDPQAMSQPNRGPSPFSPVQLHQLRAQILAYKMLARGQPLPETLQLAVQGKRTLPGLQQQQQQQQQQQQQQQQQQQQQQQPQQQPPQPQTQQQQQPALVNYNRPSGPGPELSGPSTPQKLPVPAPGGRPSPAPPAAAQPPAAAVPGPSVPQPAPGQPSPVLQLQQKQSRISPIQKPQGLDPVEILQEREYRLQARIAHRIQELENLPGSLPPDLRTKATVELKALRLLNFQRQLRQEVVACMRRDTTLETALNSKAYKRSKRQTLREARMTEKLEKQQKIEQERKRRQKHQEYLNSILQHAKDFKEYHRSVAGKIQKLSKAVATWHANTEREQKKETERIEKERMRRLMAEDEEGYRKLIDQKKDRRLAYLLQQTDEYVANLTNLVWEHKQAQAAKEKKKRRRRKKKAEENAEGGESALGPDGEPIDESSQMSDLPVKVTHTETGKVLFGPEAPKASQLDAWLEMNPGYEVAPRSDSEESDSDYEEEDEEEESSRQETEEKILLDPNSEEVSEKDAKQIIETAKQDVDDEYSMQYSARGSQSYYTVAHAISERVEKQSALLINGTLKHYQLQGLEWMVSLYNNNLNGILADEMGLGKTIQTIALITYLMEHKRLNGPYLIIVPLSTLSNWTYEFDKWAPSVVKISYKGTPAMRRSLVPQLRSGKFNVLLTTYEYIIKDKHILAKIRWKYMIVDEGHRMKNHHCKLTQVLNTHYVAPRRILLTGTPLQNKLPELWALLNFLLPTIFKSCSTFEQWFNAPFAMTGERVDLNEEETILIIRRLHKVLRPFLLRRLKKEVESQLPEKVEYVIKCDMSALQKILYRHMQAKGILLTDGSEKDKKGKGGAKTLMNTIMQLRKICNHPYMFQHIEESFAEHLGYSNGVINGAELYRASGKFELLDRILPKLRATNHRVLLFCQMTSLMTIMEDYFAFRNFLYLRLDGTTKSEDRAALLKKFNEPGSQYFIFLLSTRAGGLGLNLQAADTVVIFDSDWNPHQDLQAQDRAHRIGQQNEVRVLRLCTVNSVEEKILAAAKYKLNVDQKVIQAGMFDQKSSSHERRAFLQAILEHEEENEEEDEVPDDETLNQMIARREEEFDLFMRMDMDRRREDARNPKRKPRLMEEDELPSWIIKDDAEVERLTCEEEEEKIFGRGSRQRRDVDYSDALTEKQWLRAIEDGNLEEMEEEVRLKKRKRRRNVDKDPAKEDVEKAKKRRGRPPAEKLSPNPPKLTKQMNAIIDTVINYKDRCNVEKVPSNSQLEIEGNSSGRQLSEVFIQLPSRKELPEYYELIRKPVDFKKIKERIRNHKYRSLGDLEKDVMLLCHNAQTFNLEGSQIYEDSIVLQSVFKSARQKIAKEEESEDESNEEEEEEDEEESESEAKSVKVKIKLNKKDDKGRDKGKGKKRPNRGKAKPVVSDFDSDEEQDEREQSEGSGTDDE
TEST SUMMARY: SMARCA2 Western blot degradation in MV4-11 cells
Format: cell-based
Parameters: SMARCA2/SMARCA4 protein degradation selectivity in MV4-11 cells; endogenous in cells; host or cells: MV4-11
RUN PARAMETERS: SMARCA2/4 selectivity, MV4-11 cells
ASSAY METRIC: Selectivity in MV411

C#Cc1ccc(CNC(=O)[C@@H]2C[C@@H](O)CN2C(=O)[C@H](NC(=O)N2CC3(CC(N4CCC(c5cnc(N6CCc7[nH]c8nnc(-c9ccccc9O)cc8c7[C@H]6C)nc5)CC4)C3)C2)C(C)(C)CCOCC(=O)O)cc1 (single isomer, unassigned); C (C (10-100 fold))
Cc1ncsc1-c1ccc(CNC(=O)[C@@H]2C[C@@H](O)CN2C(=O)[C@H](c2cc(N3CC4(CC(N5CCC(c6cnc(N7CCN8c9cc(-c%10ccccc%10O)nnc9NC[C@H]8C7)nc6)CC5)C4)C3)no2)C(C)C)cc1 (single isomer, unassigned); C (C (10-100 fold))

----------
ASSAYED TARGET: SMARCA2 (Homo sapiens, UniProt P51531)
TEST SUMMARY: SMARCA2 Western blot degradation in MV4-11 cells
Format: cell-based
Set-up: SMARCA2/SMARCA4 protein degradation selectivity in MV4-11 cells; endogenous in cells; host or cells: MV4-11
RUN PARAMETERS: MV4-11 cells, 24 h; read-out: SMARCA2 MSD MV411 degradation 24 h: Mean external-Abs DC50
ASSAY METRIC: DC50

C#Cc1ccc(CNC(=O)[C@@H]2C[C@@H](O)CN2C(=O)[C@@H](NC(=O)N2CC3(CC(N4CCC(c5cnc(N6CCc7[nH]c8nnc(-c9ccccc9O)cc8c7[C@H]6C)nc5)CC4)C3)C2)C(C)(C)C)c(OCCCOC)c1; 1 to 10 nM
Cc1ncsc1-c1ccc(CNC(=O)[C@@H]2C[C@@H](O)CN2C(=O)C(c2cc(OCCCCN3CCC(c4cnc(N5CCN6c7cc(-c8ccccc8O)nnc7NC[C@H]6C5)nc4)CC3)no2)C(C)C)cc1 (stereo partly drawn); < 1 nM
C#Cc1ccc(CNC(=O)[C@@H]2C[C@@H](O)CN2C(=O)[C@@H](NC(=O)C2CCN(CC3CCC(N4CCC(N5CCc6[nH]c7nnc(-c8ccccc8O)cc7c6[C@H]5C)CC4)CC3)CC2)C(C)(C)C)cc1 (stereo partly drawn); > 100 nM
C#Cc1ccc(CNC(=O)[C@@H]2C[C@@H](O)CN2C(=O)[C@@H](NC(=O)N2CC3(CC(CN4CCC(c5cnc(N6CCc7[nH]c8nnc(-c9ccccc9O)cc8c7[C@H]6C)nc5)CC4)C3)C2)C(C)(C)C)cc1; 1 to 10 nM
C#Cc1ccc(CNC(=O)[C@@H]2C[C@@H](O)CN2C(=O)[C@@H](NC(=O)[C@H]2CC3(C2)C[C@H](N2CCN(C(=O)CN4CCN5c6cc(-c7ccccc7O)nnc6NC[C@H]5C4)CC2)C3)C(C)(C)C)cc1 (single isomer, unassigned) [I-239]; 1 to 10 nM
C#Cc1ccc(CNC(=O)[C@@H]2C[C@@H](O)CN2C(=O)[C@H](NC(=O)[C@H]2CCC3(CC2)C[C@H](N2CCC(c4cnc(N5CCN6c7cc(-c8ccccc8O)nnc7NC[C@H]6C5)nc4)CC2)C3)C(C)(C)CCO)cc1 (single isomer, unassigned); > 100 nM
C#Cc1ccc([C@H](C)NC(=O)[C@@H]2C[C@@H](O)CN2C(=O)[C@@H](NC(=O)N2CC3(CC(N4CCC(c5cnc(N6CCc7[nH]c8nnc(-c9ccccc9O)cc8c7[C@H]6C)nc5)CC4)C3)C2)C(C)(C)C)cc1; 1 to 10 nM
C#Cc1ccc(CNC(=O)[C@@H]2C[C@@H](O)CN2C(=O)[C@@H](NC(=O)[C@H]2CCC3(CC2)C[C@H](N2CCC(N(C)CCN4CCN5c6cc(-c7ccccc7O)nnc6NC[C@H]5C4)CC2)C3)C(C)(C)C)cc1 (single isomer, unassigned) [I-246]; 10 to 100 nM
C#Cc1ccc(CNC(=O)[C@@H]2C[C@@H](O)CN2C(=O)[C@@H](NC(=O)[C@H]2CCC3(CC2)C[C@H](N2CCC(c4cnc(N5CCN6c7cc(-c8cccc(Cl)c8O)nnc7NC[C@@H]6C5)nc4)CC2)C3)C(C)(C)C)cc1 (single isomer, unassigned) [I-154]; 10 to 100 nM
